- Test system: Bacillus subtilis
- Test Protocol: cleaved RNA product abundance (RNA/gDNA barcode ratio) relative to median wild-type variant (ratio to wild type); higher = more accumulation of the downstream cleavage product
- Condition Set: experiment (reporter, strain, medium): exp 2b: truncated aprE reporter, strain BJT200; cleavage site: cggR-gapA (positions -7 to +36 mutated)
Measurement Name: cleaved RNA product abundance

Here is how some sequences turned out for cleaved RNA product abundance.
ordered_residues=ACAGACGAAGGAGCCGCAAAGAAGTTATTAAGGGATGAATACTCCCTAAATATAAATATCTCTCACTTATTTAAA measurement=0.366
ordered_residues=ACAGACGAAGGAGCCGCAAAGAAGTTATTAAGGGATCAATAATCTCTCAATATAAATATCTCTCACTTATTTAAA measurement=0.312
ordered_residues=ACAGACGAAGGAGCCGCAAAGAAGTTATTAAGCGATGAATAATCCCTCAATATAAACATCTCTCACTTATTTAAA measurement=0.0873

input: Look at this sequence and give its reported cleaved RNA product abundance. `ACAGACGAAGGAGCCGCAAAGAAGTTATTAAGGTTTGAATAATCCCTCAATATAAATATCTCTCACTTATTTAAA`
output: 0.102

input: Look at this sequence and give its reported cleaved RNA product abundance. `ACAGACGAAGGAGCCGCAAAGAAGTTATTAAGTGATGAATAATCCCTCAAAATAAATATCTCTCACTTATTTAAA`
output: 0.102

input: Look at this sequence and give its reported cleaved RNA product abundance. `ACAGACGAAGGAGCCGCAAAGAAGTTATTAAGGGACGAATAATCCCTCATTATAAATATCTCTCACTTATTTAAA`
output: 0.215

input: Look at this sequence and give its reported cleaved RNA product abundance. `ACAGACGAAGGAGCCGCAAAGAACTTATTAAGGGATGAATAATCCCTCAATATAAATATCTCTCACTTATTTAAA`
output: 0.448

input: Look at this sequence and give its reported cleaved RNA product abundance. `ACAGACGAAGGAGCCGCAAAGAAGTTATTAAGTGATGAATAATCCCTCAATACAAATATCTCTCACTTATTTAAA`
output: 0.102

input: Look at this sequence and give its reported cleaved RNA product abundance. `ACAGACGAAGGAGCCGCAAAAAAGTTTTTAAGGGATGAATAATCCCTCAATATAAATATCTCTCACTTATTTAAA`
output: 0.281

input: Look at this sequence and give its reported cleaved RNA product abundance. `ACAGACGAAGGAGCCGCAAAGAAGTTATTAAGGTATGAATAATCCCTCAATAAAAATATCTCTCACTTATTTAAA`
output: 0.119

input: Look at this sequence and give its reported cleaved RNA product abundance. `ACAGACGAAGGAGCCGCAAAGAAGTAATTAATGGATGAATAATCCCTCAATATAAATATCTCTCACTTATTTAAA`
output: 0.105

input: Look at this sequence and give its reported cleaved RNA product abundance. `ACAGACGAAGGAGCCGCAAAGAAGTTATTAAGGGATGAATAAAACCTCAATATAAATATCTCTCACTTATTTAAA`
output: 0.119

input: Look at this sequence and give its reported cleaved RNA product abundance. `ACAGACGAAGGAGCCGCAAAGAAGTTATTAAGGGATAAATTATCCCTCAATATAAATATCTCTCACTTATTTAAA`
output: 1.07

input: Look at this sequence and give its reported cleaved RNA product abundance. `ACAGACGAAGGAGCCGCATAGAAGTTAATAAGGGATGAATAATCCCTCAATATAAATATCTCTCACTTATTTAAA`
output: 0.239

input: Look at this sequence and give its reported cleaved RNA product abundance. `ACAGACGAAGGAGCCGCAAAGAAGTTATTAAGCGATGAATAATCCCTCAATATAAATATTTCTCACTTATTTAAA`
output: 0.0865
